Measured Kb accompanies every entry in the list below.
Target: human H3 receptor (Homo sapiens)
Construct: expressed in transfected cells; host or cells: SK-N-MC cell sublines
Sequence (Q9Y5N1 whole entry): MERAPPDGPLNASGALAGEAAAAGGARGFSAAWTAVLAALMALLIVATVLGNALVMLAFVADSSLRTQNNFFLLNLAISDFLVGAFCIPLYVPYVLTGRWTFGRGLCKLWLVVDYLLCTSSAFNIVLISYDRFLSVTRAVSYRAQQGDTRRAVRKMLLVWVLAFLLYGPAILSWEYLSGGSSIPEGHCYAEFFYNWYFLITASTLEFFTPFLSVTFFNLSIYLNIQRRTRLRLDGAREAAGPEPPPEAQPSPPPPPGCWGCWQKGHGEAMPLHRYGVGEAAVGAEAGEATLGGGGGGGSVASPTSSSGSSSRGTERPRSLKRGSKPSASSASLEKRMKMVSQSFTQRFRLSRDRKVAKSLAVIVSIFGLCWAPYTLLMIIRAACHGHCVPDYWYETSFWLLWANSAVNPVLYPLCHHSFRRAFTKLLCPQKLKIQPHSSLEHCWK
Experiment: Cyclic AMP Accumulation (human H3)
Assay type: cell-based
Settings: SK-N-MC cells expressing reporter construct and human H3 receptor; read-out: Human pA2 (converted)

Guide cases for Kb, answers given:
O=C(c1cnc(OC2CCCCC2)cn1)N1CCCN(C2CCC2)CC1	0.525 nM
O=C(c1cnc(Oc2ccc(Cl)cc2)cn1)N1CCCN(C2CCC2)CC1	1.2 nM
O=C(c1cnc(Oc2ccc(F)cc2)cn1)N1CCCN(C2CCC2)CC1	0.871 nM

For the compound "O=C(c1cnc(Oc2cccc(F)c2)cn1)N1CCCN(C2CCC2)CC1" , report Kb. 0.537 nM

---

Target: rat H3 receptor (rat brain membranes) (Rattus norvegicus)
Sequence (Q9QYN8 whole entry): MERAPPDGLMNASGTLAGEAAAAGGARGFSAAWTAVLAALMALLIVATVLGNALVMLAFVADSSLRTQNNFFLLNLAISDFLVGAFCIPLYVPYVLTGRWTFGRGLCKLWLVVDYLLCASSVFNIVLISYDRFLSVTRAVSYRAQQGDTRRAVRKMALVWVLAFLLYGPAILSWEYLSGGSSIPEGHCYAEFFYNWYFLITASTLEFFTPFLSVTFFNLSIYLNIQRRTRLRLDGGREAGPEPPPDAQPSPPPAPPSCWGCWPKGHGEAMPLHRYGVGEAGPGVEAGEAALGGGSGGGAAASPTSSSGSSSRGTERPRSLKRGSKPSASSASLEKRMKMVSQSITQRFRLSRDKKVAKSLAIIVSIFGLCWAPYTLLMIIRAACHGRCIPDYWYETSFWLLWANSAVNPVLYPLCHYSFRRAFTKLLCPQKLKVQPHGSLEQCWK
measuredMetric: pKi
To interpret pKi, take it as minus log10 of a concentration measured in moles per litre.

For the compound O=C(c1cnc(Oc2cccc(F)c2)cn1)N1CCCN(C2CCC2)CC1 [Example 4] , report pKi. 7.74

---

Here's a batch of compounds along with measured pKi for UniProt:Q9Y5N1.
To interpret pKi, take it as minus log10 of a concentration measured in moles per litre.

O=C(c1cnc(Oc2ccccc2)cn1)N1CCN(C2CCC2)CC1	7.44

For the compound "O=C(c1cnc(Oc2ccc(F)cc2)cn1)N1CCN(C2CCC2)CC1" , report pKi. 7.72

For the compound "O=C(c1cnc(OC2CCCCC2)cn1)N1CCCN(C2CCC2)CC1" , report pKi. 8.49

For the compound "O=C(c1cnc(Oc2ccc(F)cc2)cn1)N1CCCN(C2CCC2)CC1" , report pKi. 8.62

For the compound "O=C(c1cnc(Oc2ccc(Cl)cc2)cn1)N1CCCN(C2CCC2)CC1" , report pKi. 8.43

For the compound "N#Cc1cccc(Oc2cnc(C(=O)N3CCCN(C4CCC4)CC3)cn2)c1" , report pKi. 8.82

For the compound "O=C(c1cnc(Oc2cccc(F)c2)cn1)N1CCN(C2CCC2)CC1" , report pKi. 7.43

For the compound "O=C(c1cnc(OC2CCCCC2)cn1)N1CCN(C2CCC2)CC1" , report pKi. 7.29

---

Molecular target: rat H3 receptor (Rattus norvegicus, UniProt Q9QYN8)
Construct: expressed in transfected cells; host or cells: SK-N-MC cell sublines
Assay: Cyclic AMP Accumulation (rat H3)
Format: cell-based
Settings: SK-N-MC cells expressing reporter construct and rat H3 receptor; read-out: Rat pA2 (converted)
Measured Kb accompanies every entry in the list below.
Please give a number only; it is taken to be in nM.

O=C(c1cnc(Oc2ccc(Cl)cc2)cn1)N1CCCN(C2CCC2)CC1	12.6
O=C(c1cnc(OC2CCCCC2)cn1)N1CCCN(C2CCC2)CC1	9.55
O=C(c1cnc(Oc2ccc(F)cc2)cn1)N1CCCN(C2CCC2)CC1	13.5

Next item in the queue.
For the molecule "O=C(c1cnc(Oc2cccc(F)c2)cn1)N1CCCN(C2CCC2)CC1" , report Kb. 6.92

Every entry's value here was drawn from patent US20090131416A1.
